# Tested on: S. aureus RN4220
# test: growth inhibition call (relative growth <= 0.2)
# condition.notes: 50 µM
The whole screen tested about 39,000 compounds, of which about 500 (1.3%) were called active. What follows is part of a selection rich in actives, with near analogues and random picks from the rest.
Choose one outcome from this list and give only that: active, inactive

See these solved cases before continuing.
O=C(N[C@H](c1ccc(F)cc1)c1ccc2ccccc2n1)C1CCN(Cc2ccc3ccccc3n2)CC1
inactive
O=C(C[C@H]1CC[C@@H]2[C@H](COC[C@@H](O)CN2Cc2cc(F)ccc2F)O1)N[C@@H]1CCN(Cc2ccccc2)C1
inactive
O=C(N[C@@H](c1ccc(-c2ccccc2)cc1)c1cnccn1)C1CCN(CCOc2ccc(F)cc2)CC1
active
O=C(N[C@@H](c1ccc(-c2ccccc2)cc1)c1cnccn1)C1CCN(Cc2cccc(C(F)(F)F)c2)CC1
inactive
Cc1ccc(S(=O)(=O)N(C)C[C@H]2OCCCC[C@H](C)Oc3ccc(NC(=O)Nc4c(C)noc4C)cc3C(=O)N([C@H](C)CO)C[C@@H]2C)cc1
inactive
Cc1ccc(S(=O)(=O)N(C)C[C@H]2OCCCC[C@H](C)Oc3ccc(NC(=O)NC4CCCCC4)cc3C(=O)N([C@H](C)CO)C[C@@H]2C)cc1
inactive

Turning now to a further compound:
# fetch the recorded call for `Cc1cn2nc([C@@H]3CCCCN3C(=O)c3cc(Cl)ccc3NS(C)(=O)=O)cc2nc1N1CC[C@H](N)C1` here
inactive
